FYI, the data here is from ChEMBL document CHEMBL3352276.

- Tested on: HepG2
- Test Details: Induction of apoptosis in human HepG2 cells assessed as down regulation of Bcl2 expression at IC50 by sandwich ELISA relative to untreated control
- Assay type: functional

| Smiles Structure | Unit Of Measure | Activity |
| --- | --- | --- |
| O=C(Cn1nc(-c2ccccc2)c2ccccc2c1=O)Nc1cccc(Cl)c1 | % | 22 |
| O=C(Cn1nc(Cc2ccccc2)c2ccccc2c1=O)Nc1cccc(C(F)(F)F)c1 | % | 22 |
| O=C(Cn1nc(Cc2ccccc2)c2ccccc2c1=O)Nc1ccccc1Cl | % | 34 |
| O=C(Cn1nc(-c2ccccc2)c2ccccc2c1=O)Nc1cccc(C(F)(F)F)c1 | % | 9.6 |

----------
- System: MCF7
- Test Details: Antiproliferative activity against human MCF7 cells after 72 hrs by SRB assay
- Type: functional, cell-based
- Assay Conditions: MCF7, 72 h

| Smiles Structure | Unit Of Measure | IC50 |
| --- | --- | --- |
| O=C(Cn1nc(-c2ccccc2)c2ccccc2c1=O)Nc1ccccc1 | µM | 43 |
| O=C(Cn1nc(Cc2ccccc2)c2ccccc2c1=O)Nc1cccc(C(F)(F)F)c1 | µM | 3.85 |
| O=C(Cn1nc(-c2ccccc2)c2ccccc2c1=O)Nc1ccc(Cl)cc1 | µM | 33 |
| O=C(Cn1nc(Cc2ccccc2)c2ccccc2c1=O)Nc1ccccc1Cl | µM | 89 |

----------
- System: MCF7
- Test Details: Antiproliferative activity against human MCF7 cells after 72 hrs by SRB assay
- Format: functional, cell-based
- Assay Conditions: MCF7, 72 h
Please respond with True when measured IC50 is strictly beneath 40 µM, and with False in all other cases.

| Smiles Structure | Class Label |
| --- | --- |
| O=C(Cn1nc(-c2ccccc2)c2ccccc2c1=O)Nc1cccc(Cl)c1 | False |
| O=C(Cn1nc(Cc2ccccc2)c2ccccc2c1=O)Nc1ccc(F)cc1 | True |
| O=C(Cn1nc(Cc2ccccc2)c2ccccc2c1=O)Nc1ccccc1 | True |
| O=C(Cn1nc(-c2ccccc2)c2ccccc2c1=O)Nc1ccc(F)cc1 | True |
| O=C(Cn1nc(-c2ccccc2)c2ccccc2c1=O)Nc1ccccc1Cl | True |
| COc1ccc(NC(=O)Cn2nc(Cc3ccccc3)c3ccccc3c2=O)cc1 | False |
| O=C(Cn1nc(-c2ccccc2)c2ccccc2c1=O)Nc1cccc(C(F)(F)F)c1 | False |
| O=C(Cn1nc(Cc2ccccc2)c2ccccc2c1=O)Nc1ccc(Cl)cc1 | True |
| O=C(Cn1nc(Cc2ccccc2)c2ccccc2c1=O)Nc1cccc(Cl)c1 | True |
| COc1ccc(NC(=O)Cn2nc(-c3ccccc3)c3ccccc3c2=O)cc1 | False |
